# measured.on: glycine/NMDA receptor (Rattus norvegicus, UniProt P35439)
# Construct: rat brain membrane homogenates which are enriched in NMDA receptors; tissue Pel-Freez, Rogers, Ark; (frozen rat brains); host or cells: rat brain membrane homogenates
# test: inhibition of 1 μM glycine-stimulated [3H]-MK801 binding in rat brain membrane homogenates (glycine/NMDA receptor antagonist activity)
# particulars: calculated from IC50 by Cheng and Prusoff equation
readout.kind: pKi
Numbers only, as −log10 of the molar value.

Query string: Report pKi for "O=c1[nH]c2cc(Cl)c(Cl)cc2[nH]c1=NO" tested on glycine/NMDA receptor (Rattus norvegicus, UniProt P35439).
Result string: 6.52

---

# measured.on: glycine/NMDA receptor (Rattus norvegicus, UniProt P35439)
# Construct: rat brain membrane homogenates which are enriched in NMDA receptors; tissue Pel-Freez, Rogers, Ark; (frozen rat brains); host or cells: rat brain membrane homogenates
# test: inhibition of 1 μM glycine-stimulated [3H]-MK801 binding in rat brain membrane homogenates (glycine/NMDA receptor antagonist activity)
# particulars: relative to 5,7-dichlorokynurenic acid (DCK)
Outcome: yes for potency relative to DCK (% of DCK) of at least 2%; no for anything lower.

A selection of reference data follows.
O=c1[nH]c2ccccc2oc1=O [Compound 2, 4,1-Benzoxazine;2,3-dione]; no
O=c1[nH]c2cc(Cl)c([N+](=O)[O-])c(Cl)c2c(=O)o1 [Compound 14d, 5,7-Dichloro-6(8)-nitroisatoic anhydride]; yes
Oc1nc2ccccc2c(O)c1O [Compound 11, 2,3,4-Trihydroxyquinoline]; yes

Query string: Entry O=C1Nc2ccccc2C(=O)C1=O [Compound 12, Quinoline-2,3,4-trione] : is its potency relative to DCK (% of DCK) no less than 2%?
Result string: yes

Query string: Item: O=C1CNC(=O)c2ccccc2N1 [Compound 73a]
Result string: no

Query string: How about this compound: O=C1Nc2cc(Cl)c([N+](=O)[O-])c(Cl)c2C1=O [Compound 13e, 4,6-Dichloro-5(7)-nitroisatin]
Result string: yes

Query string: What do we get for O=c1[nH]c2ccccc2c(=O)o1 [Compound 14a, Isatoic anhydride] ?
Result string: no

---

# measured.on: glycine/NMDA receptor (Rattus norvegicus)
# Construct: rat brain membrane homogenates which are enriched in NMDA receptors; tissue Pel-Freez, Rogers, Ark; (frozen rat brains); host or cells: rat brain membrane homogenates
# test: inhibition of 1 μM glycine-stimulated [3H]-MK801 binding in rat brain membrane homogenates (glycine/NMDA receptor antagonist activity)
readout.kind: pIC50
Answers are plain numbers, as −log10 of the molar value.

Query string: # pIC50 lookup, item O=c1[nH]c2ccccc2c(=O)o1 [Compound 14a, Isatoic anhydride]
Result string: 3.64

---

# measured.on: glycine/NMDA receptor (Rattus norvegicus, UniProt P35439)
# Construct: rat brain membrane homogenates which are enriched in NMDA receptors; tissue Pel-Freez, Rogers, Ark; (frozen rat brains); host or cells: rat brain membrane homogenates
# test: inhibition of 1 μM glycine-stimulated [3H]-MK801 binding in rat brain membrane homogenates (glycine/NMDA receptor antagonist activity)
# particulars: calculated from IC50 by Cheng and Prusoff equation; unit μm [sic]
readout.kind: Ki (µM)
Answers are plain numbers, in µM.

Query string: Return reported Ki; argument: O=C1Nc2cc(Cl)c(Cl)cc2NC1[N+](=O)[O-] (stereo not shown) [Compound 33]
Result string: 0.22
